Experiment: HPLC on immobilized artificial membrane column (HPLC-IAM)
Format: physicochemical
Details: retention factor, phosphate buffer pH 7.4/acetonitrile 80:20
Measured Metric: kIAM
One number for each entry.

Please review the entries below; each comes with its answer.
| Compound | Reported Measurement |
| --- | --- |
| CC(C)C[C@H](CN)CC(=O)O | 1.65 |
| CN1CCC[C@@H]1Cc1c[nH]c2ccc(CCS(=O)(=O)c3ccccc3)cc12 | 3.57 |
| CCC[C@@H]1C[C@@H](C(=O)N[C@@H]([C@H]2O[C@H](SC)[C@H](O)[C@@H](O)[C@H]2O)[C@@H](C)O)N(C)C1 | 3.89 |

Value of measured kIAM for the entry NC(=O)N1c2ccccc2CC(=O)c2ccccc21 [oxcarbamazepine] : 2.26
